Test system: RPE-Neo or RPE-MYC or RPE-MYC expressing an EGFP-Histone 2B fusion protein
protocol: Phenotypic screening assay (arrest in mitosis or change in DNA content, IN-Cell Analyzer)
Type: cell-based
protocol-conditions: compounds at 20 nM to 20 μM; analysed 24, 48 or 72 hours after initiation of treatment; read-out: Min. Effective conc. for Mitotic Arrest (>5%)
readout-type: minimal effective concentration

Consider the compound Cc1ccc(CN2C(=O)CC(COCC3CCOC3)=C(Br)c3ccccc32)cc1F (centres unmarked) tested on RPE-Neo or RPE-MYC or RPE-MYC expressing an EGFP-Histone 2B fusion protein; state its minimal effective concentration.
1 to 10 µM

Consider the compound "Cc1ccc(CN2C(=S)CC(c3nnc(C4CC4)o3)=C(Br)c3ccccc32)cc1F" tested on RPE-Neo or RPE-MYC or RPE-MYC expressing an EGFP-Histone 2B fusion protein; state its minimal effective concentration.
0.001 to 1 µM

Consider the compound "Cc1ccc(CN2C(=O)CC(c3nnc(C4CC4)o3)=C(Br)c3cc(F)ccc32)cc1F" tested on RPE-Neo or RPE-MYC or RPE-MYC expressing an EGFP-Histone 2B fusion protein; state its minimal effective concentration.
0.001 to 1 µM

Consider the compound "COCCOc1ccc2c(c1)N(Cc1ccc(C)c(F)c1)C(=O)CC(c1cnco1)=C2Cl" tested on RPE-Neo or RPE-MYC or RPE-MYC expressing an EGFP-Histone 2B fusion protein; state its minimal effective concentration.
0.001 to 1 µM

Consider the compound "COc1ccc2c(c1)N(Cc1ccc(C)c(F)c1)C(=O)CC(c1nnc(C3CC3)o1)=C2Br" tested on RPE-Neo or RPE-MYC or RPE-MYC expressing an EGFP-Histone 2B fusion protein; state its minimal effective concentration.
0.001 to 1 µM

Consider the compound Cc1ccc(C(C)N2C(=O)CC(c3nnc(C4CC4)o3)=C(Br)c3ccccc32)cc1F (centres unmarked) tested on RPE-Neo or RPE-MYC or RPE-MYC expressing an EGFP-Histone 2B fusion protein; state its minimal effective concentration.
1 to 10 µM

Consider the compound "Cc1ccc(CN2C(=O)CC(c3nc[nH]n3)=C(Br)c3ccccc32)cc1F" tested on RPE-Neo or RPE-MYC or RPE-MYC expressing an EGFP-Histone 2B fusion protein; state its minimal effective concentration.
1 to 10 µM

Consider the compound "Cc1nnc(C2=C(Cl)c3ccccc3N(Cc3ccc(C)c(F)c3)C(=O)C2)o1" tested on RPE-Neo or RPE-MYC or RPE-MYC expressing an EGFP-Histone 2B fusion protein; state its minimal effective concentration.
0.001 to 1 µM
